- Test system: HCC 2998
- measurement description: NCI tumour cell line growth inhibition, 48 h
Active and inactive are the calls of the source. Cut-off read from the data, not from the text of the source: active = GI50 up to about 1.1 µM and inactive = higher.
value kind: GI50

compound: COC(=O)[C@@]1(C(C)CC(=O)O)CCCCC1=O (some centres not stated)
recorded result: > 100 µM (inactive)
//
compound: S=C1SCC2CCCN12 (configuration not stated)
recorded result: > 100 µM (inactive)
//
compound: O=C(CSc1n[nH]c(=O)[nH]c1=O)NNC(=O)c1cccc2nc3ccccc3nc12
recorded result: 40.8 µM (inactive)
//
compound: Cc1ccc(Nc2n[nH]c(=S)s2)cc1
recorded result: > 100 µM (inactive)
//
compound: COc1ccc2oc(=N)c(C(=O)Nc3cccc4ccccc34)cc2c1
recorded result: 58.7 µM (inactive)
//
compound: CCN(CC)C(=O)N1CN(c2ccccc2)C2(CCN(CCCC3(c4ccc(F)cc4)OCCO3)CC2)C1=O
recorded result: 14.5 µM (inactive)
//
compound: COc1cc2c(cc1OC)-c1cc3ccccc3c(=O)n1CCC2
recorded result: 13.7 µM (inactive)
